molecular target: DDB1–DCAF12–DDA1 complex (human | , UniProt Q5T6F0 1-453; Q5T6F0 1-453; Q9BW61 1-102); assay: FP
Where no end group is shown, it is not given here. The star is where a group is joined. FITC = O=C1OC2(c3ccc(O)cc3Oc3cc(O)ccc32)c2ccc(NC(=S)*)cc21
VALUE TYPE: Kd (nM)

[I] {FITC}-IRKPGESEE [FITC-labeled CCT5 peptide]
[II] {FITC}-LHEWVLREGEE [FITC-labeled MAGEA3 peptide]
For I and II , which recorded Kd is lower? Indicate your choice by writing its label. II
